Taken from patent US20240390350A1.

- tgt: human mGlu5 (Homo sapiens, UniProt P41594)
- Sequence (P41594 21-1212): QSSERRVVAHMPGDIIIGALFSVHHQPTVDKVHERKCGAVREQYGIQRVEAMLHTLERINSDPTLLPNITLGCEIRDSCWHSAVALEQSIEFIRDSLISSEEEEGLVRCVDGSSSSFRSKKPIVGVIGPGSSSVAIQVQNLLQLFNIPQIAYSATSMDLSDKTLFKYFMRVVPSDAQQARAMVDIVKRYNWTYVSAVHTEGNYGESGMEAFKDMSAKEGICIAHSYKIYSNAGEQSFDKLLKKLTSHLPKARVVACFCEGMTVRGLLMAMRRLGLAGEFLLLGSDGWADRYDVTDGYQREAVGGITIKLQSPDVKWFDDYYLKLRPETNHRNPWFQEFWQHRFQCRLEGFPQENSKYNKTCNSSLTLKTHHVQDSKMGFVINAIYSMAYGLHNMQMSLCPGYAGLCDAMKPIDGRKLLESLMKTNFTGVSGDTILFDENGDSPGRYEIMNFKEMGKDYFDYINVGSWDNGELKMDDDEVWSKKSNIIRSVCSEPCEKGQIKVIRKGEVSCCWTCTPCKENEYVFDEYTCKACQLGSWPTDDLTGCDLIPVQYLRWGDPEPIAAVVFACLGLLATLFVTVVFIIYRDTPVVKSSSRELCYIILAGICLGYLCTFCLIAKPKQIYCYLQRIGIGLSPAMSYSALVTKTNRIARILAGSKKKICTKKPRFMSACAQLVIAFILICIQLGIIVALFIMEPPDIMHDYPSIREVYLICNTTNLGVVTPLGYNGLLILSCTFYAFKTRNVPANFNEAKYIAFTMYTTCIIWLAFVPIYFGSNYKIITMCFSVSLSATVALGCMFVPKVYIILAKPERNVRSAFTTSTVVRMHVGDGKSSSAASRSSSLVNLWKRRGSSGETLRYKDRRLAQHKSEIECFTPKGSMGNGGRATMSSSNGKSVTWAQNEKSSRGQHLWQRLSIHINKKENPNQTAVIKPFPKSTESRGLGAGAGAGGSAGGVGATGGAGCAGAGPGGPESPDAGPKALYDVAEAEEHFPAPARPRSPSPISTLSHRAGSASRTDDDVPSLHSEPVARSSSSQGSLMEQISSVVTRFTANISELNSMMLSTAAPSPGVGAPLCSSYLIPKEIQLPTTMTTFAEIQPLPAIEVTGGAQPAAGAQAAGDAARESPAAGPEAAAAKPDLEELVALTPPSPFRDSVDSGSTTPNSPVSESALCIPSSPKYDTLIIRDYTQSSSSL
- procedureSummary: mGlu5 negative allosteric modulator Ca2+ flux assay in HEK 293A cells (Table 1)
- measurementContext: HEK 293A cells stably expressing mGlu5; Ca2+ flux (Fluo-4); decrease of glutamate EC80 response; read-out: hmGlu5 NAM IC50
measurementType: pIC50
A value of pIC50 is the negative decimal logarithm of a concentration given in moles per litre.

# annotated cases, reported pIC50 shown
>>> resultnumber("Cc1ccncc1-c1cc(C(=O)Nc2cccc(Cl)n2)c(F)cc1F")
6.72
>>> resultnumber("Cc1csc(NC(=O)c2cc(-c3cnccc3C)ccc2F)n1")
6.13
>>> resultnumber("Cc1cccc(NC(=O)c2cc(Cl)cc(-c3cnccc3C)c2)n1")
6.98
>>> resultnumber("Cc1csc(NC(=O)c2cc(-c3cnccc3C)c(F)cc2F)n1")
6.36
>>> resultnumber("Cc1ccncc1-c1cc(C(=O)Nc2cccc(Cl)n2)cc(F)c1F")
7.10

Supply measured pIC50 of Cc1cc(C(=O)Nc2nc(C)cs2)cc(-c2cnccc2C)c1 in your reply. 6.90

Give the reported pIC50 for this compound. Cc1cccc(NC(=O)c2cc(C#N)cc(-c3cnccc3C)c2)n1 6.56

Report pIC50, nothing else, for this compound: Cc1cc(C(=O)Nc2ccccn2)cc(-c2cnccc2C)c1 7.02
